Ref: PubChem BioAssay

- Test: 384-well plate pilot, post-Golgi transport modulator project, inhibition of yeast transport mutant growth (AID 636); also: test concentration not given here
- Study Conditions: absorbance 615 nm, about 18 h, stronger effect = higher value
Test Readout: inhibition (%)
Quick reminder: number only, in %, skip the unit.

Query block: Output measured inhibition for this item: CC1(C)NC(=O)N(CN2C(=O)NC(C)(C)C2=O)C1=O
Result block: -3.33

Query block: Output measured inhibition for this item: CC1CN(S(=O)(=O)c2ccc(Cl)c(C(F)(F)F)c2)CC(C)O1 (stereo unspecified)
Result block: -9.32

Next:
Query block: Output measured inhibition for this item: COc1cc(NS(=O)(=O)c2ccc(N)cc2)ncn1
Result block: -1.56

Query block: Output measured inhibition for this item: O=C(CN1CCOCC1)Nc1cccc(C(=O)Nc2cccc(C(F)(F)F)c2)c1
Result block: -0.26

Query block: Output measured inhibition for this item: CCOCC(O)CS(=O)Cc1ccccc1 (stereo unspecified)
Result block: -6.67

Query block: Output measured inhibition for this item: CCN(CC)c1nc2cc(OC)ccc2cc1C#N
Result block: -2.86

Query block: Output measured inhibition for this item: COc1cccc(-c2cc(C(=O)N3CCCc4ccccc43)no2)c1
Result block: -6.49

Query block: Output measured inhibition for this item: COc1ccc(Cn2nnnc2C(c2ccncc2)N2CCOCC2)cc1 (stereo unspecified)
Result block: 0.78

Query block: Output measured inhibition for this item: COc1ccc(CCN(Cc2cc3cccc(C)c3[nH]c2=O)C(=O)N2CCCC2)cc1OC
Result block: -2.6

Query block: Output measured inhibition for this item: O=C(c1cc(-c2cccc(O)c2)on1)N1CCN(C(c2ccccc2)c2ccccc2)CC1
Result block: 0.26

Query block: Output measured inhibition for this item: CCn1cnc2cc(NCc3cccc(OC)c3O)ccc21
Result block: -4.47

Query block: Output measured inhibition for this item: Cc1ccc(OCc2nnc(SCC(=O)N3CCOCC3)n2C)cc1
Result block: -0.93

Query block: Output measured inhibition for this item: CCc1nnc(NC(=O)c2ccc(-c3cccc(C(F)(F)F)c3)o2)s1
Result block: -5.6

Query block: Output measured inhibition for this item: COc1ccc(C2C(C(C)=O)=C(O)C(=O)N2C)c(OC)c1 (stereo unspecified)
Result block: 1.3

Query block: Output measured inhibition for this item: CCOC(=O)CSc1nnc(NCC(=O)OC(C)C)c(=O)[nH]1
Result block: -1.56

Query block: Output measured inhibition for this item: O=C1NC(=O)C2(CCC(C(=O)O)C2)N1 (stereo unspecified)
Result block: -5.73
